Reference source: patent US11655235B2

# test_system: recombinant human DPP8 (Homo sapiens)
# Construct: purchased PBS Bioscience
# Sequence (Q6V1X1 whole entry): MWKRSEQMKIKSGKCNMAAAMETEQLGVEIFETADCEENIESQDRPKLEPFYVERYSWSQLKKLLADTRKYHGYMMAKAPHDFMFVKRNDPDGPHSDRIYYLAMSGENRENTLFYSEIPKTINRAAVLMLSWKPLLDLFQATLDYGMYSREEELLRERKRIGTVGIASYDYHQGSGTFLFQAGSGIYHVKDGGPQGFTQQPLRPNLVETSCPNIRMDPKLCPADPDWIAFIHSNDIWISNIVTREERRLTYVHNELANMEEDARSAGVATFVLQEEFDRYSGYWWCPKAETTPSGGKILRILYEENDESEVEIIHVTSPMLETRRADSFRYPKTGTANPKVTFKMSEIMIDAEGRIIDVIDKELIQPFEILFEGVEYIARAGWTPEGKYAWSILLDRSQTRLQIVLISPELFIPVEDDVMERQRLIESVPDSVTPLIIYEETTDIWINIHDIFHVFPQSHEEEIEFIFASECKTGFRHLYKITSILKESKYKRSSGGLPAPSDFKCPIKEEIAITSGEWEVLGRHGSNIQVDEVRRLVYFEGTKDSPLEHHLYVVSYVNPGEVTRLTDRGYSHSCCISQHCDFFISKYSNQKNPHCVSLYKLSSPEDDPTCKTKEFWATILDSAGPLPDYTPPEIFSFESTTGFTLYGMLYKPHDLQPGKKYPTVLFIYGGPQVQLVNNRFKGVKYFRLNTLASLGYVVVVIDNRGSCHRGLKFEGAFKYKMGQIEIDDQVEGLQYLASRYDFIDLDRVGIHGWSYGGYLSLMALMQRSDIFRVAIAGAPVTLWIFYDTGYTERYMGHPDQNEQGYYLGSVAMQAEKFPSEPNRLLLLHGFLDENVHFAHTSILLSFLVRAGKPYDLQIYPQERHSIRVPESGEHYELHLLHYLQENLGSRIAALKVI
# assay_name: DPP8 inhibition, fluorogenic substrate Z-Ala-Pro-AMC
# Assay type: biochemical
# setup_conditions: recombinant human DPP8
In this section, each of the compounds is paired with its reported pIC50.
A value of pIC50 is the negative decimal logarithm of a concentration given in moles per litre.

Some solved entries appear below for comparison.
N#C[C@@H]1C[C@H](F)CN1C(=O)CN1CCC(Oc2ccnc3ccc(C(F)(F)F)cc23)CC1 5.00
N#C[C@@H]1C[C@H](F)CN1C(=O)CN1CC[C@H](Nc2cc(F)cc3ncccc23)C1 5.14
N#C[C@@H]1C[C@H](F)CN1C(=O)CN1CCC(Oc2nccc3ccccc23)CC1 5.03
N#C[C@@H]1C[C@H](F)CN1C(=O)CN1CCC(Nc2ccc(C(=O)Nc3ncccn3)c3ncccc23)CC1 6.60
N#Cc1ccc2c(N[C@H]3CCN(CC(=O)N4C[C@@H](F)C[C@H]4C#N)C3)cccc2n1 5.60

// switching to the query compound
Q. # input compound: "N#C[C@@H]1CCCN1C(=O)CN1CC[C@H](Nc2ccc(OCc3ccccc3)c3ncccc23)C1" ; wanted: its pIC50
A. 5.27

---

# test_system: DPP4 (Homo sapiens, UniProt P27487)
# Sequence (P27487 whole entry): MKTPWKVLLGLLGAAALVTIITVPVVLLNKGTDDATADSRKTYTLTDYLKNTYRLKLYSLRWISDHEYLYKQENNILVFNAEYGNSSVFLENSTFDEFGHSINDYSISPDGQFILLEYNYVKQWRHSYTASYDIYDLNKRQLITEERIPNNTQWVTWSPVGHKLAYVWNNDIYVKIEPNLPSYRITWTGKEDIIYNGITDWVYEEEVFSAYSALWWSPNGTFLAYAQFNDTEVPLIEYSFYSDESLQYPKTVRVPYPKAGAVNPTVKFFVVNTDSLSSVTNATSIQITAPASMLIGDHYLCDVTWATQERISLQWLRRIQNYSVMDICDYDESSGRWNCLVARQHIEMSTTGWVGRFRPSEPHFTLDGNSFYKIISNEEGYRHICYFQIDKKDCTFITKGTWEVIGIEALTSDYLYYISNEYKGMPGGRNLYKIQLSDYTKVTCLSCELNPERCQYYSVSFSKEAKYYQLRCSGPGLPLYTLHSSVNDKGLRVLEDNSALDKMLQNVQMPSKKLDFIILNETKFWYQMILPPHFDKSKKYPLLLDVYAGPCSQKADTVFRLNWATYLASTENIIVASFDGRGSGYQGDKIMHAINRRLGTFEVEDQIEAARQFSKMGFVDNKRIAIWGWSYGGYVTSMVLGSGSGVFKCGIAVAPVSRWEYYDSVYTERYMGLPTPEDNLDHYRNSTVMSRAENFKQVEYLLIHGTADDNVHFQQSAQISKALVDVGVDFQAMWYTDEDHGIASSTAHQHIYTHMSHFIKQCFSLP
# assay_name: DPP4 inhibition, fluorogenic substrate H-Gly-Pro-AMC
# Format: biochemical
# Design: purchased R&D Systems
# setup_conditions: recombinant human DPP4
In this section, each of the molecules is paired with its reported pIC50.
A value of pIC50 is the negative decimal logarithm of a concentration given in moles per litre.

Some solved entries appear below for comparison.
COc1cc2c(NC3CCN(CC(=O)N4C[C@@H](F)C[C@H]4C#N)CC3)cccc2cn1 5.28
Cc1cc(OC2CCN(CC(=O)N3C[C@@H](F)C[C@H]3C#N)CC2)c2ccccc2n1 5.04
CC(=O)Nc1ccc(NC2CCN(CC(=O)N3C[C@@H](F)C[C@H]3C#N)CC2)c2cccnc12 5.88
COc1cc(N[C@H]2CCN(CC(=O)N3C[C@@H](F)C[C@H]3C#N)C2)c2cccnc2c1 6.16
CNC(=O)c1ccc(N[C@H]2CCN(CC(=O)N3C[C@@H](F)C[C@H]3C#N)C2)c2cccnc12 5.56

Q. Write down the reported pIC50 of "N#C[C@@H]1C[C@H](F)CN1C(=O)CN1CCC(Nc2ccc(C(=O)Nc3ccon3)c3ncccc23)CC1" , test system: DPP4 (Homo sapiens, UniProt P27487).
A. 5.74

Q. Write down the reported pIC50 of "N#C[C@@H]1C[C@H](F)CN1C(=O)CN1CC[C@H](Nc2ccc(C(=O)Nc3ccccn3)c3ncccc23)C1" , test system: DPP4 (Homo sapiens, UniProt P27487).
A. 6.36

Q. Write down the reported pIC50 of "N#Cc1cccc2c(OC3CCN(CC(=O)N4C[C@@H](F)C[C@H]4C#N)CC3)ccnc12" , test system: DPP4 (Homo sapiens, UniProt P27487).
A. 5.61

Q. Write down the reported pIC50 of "N#C[C@@H]1C[C@H](F)CN1C(=O)CN1CCC(Oc2ccnc3cc(F)ccc23)CC1" , test system: DPP4 (Homo sapiens, UniProt P27487).
A. 5.25

Q. Write down the reported pIC50 of "N#C[C@@H]1C[C@H](F)CN1C(=O)CN1CCC(Nc2ccc(C(=O)Nc3ncccn3)c3ncccc23)CC1" , test system: DPP4 (Homo sapiens, UniProt P27487).
A. 5.68

Q. Write down the reported pIC50 of "CCN(c1cccc2ncccc12)C1CCN(CC(=O)N2C[C@@H](F)C[C@H]2C#N)CC1" , test system: DPP4 (Homo sapiens, UniProt P27487).
A. 5.68
